Data origin: patent US9611277B2

Biological target: human orexin 2 receptor (Homo sapiens (Human), UniProt O43614)
Sequence (O43614 whole entry): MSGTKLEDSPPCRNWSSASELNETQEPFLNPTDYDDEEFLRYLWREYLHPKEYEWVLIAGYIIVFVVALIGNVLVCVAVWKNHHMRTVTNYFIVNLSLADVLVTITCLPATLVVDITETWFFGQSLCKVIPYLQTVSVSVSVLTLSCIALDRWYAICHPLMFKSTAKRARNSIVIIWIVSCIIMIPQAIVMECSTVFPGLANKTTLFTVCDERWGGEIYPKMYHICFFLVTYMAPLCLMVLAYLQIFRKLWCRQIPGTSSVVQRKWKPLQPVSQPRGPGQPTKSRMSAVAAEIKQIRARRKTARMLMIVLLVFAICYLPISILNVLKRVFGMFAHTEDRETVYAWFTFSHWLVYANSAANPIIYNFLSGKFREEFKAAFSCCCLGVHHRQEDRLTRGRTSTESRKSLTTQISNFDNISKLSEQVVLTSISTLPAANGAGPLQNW
Experiment: Human orexin 2 receptor radioligand binding
Settings: human orexin 2 receptor; averages of 2-20 runs; read-out: hOX2 Ki
Observed property: pKi
Friendly reminder that pKi comes from taking -log10 of the concentration in mol/L.

The measured pKi associated with Cc1cnc(N[C@@H]2C[C@H]3C[C@@H]2N(C(=O)c2cccc(F)c2-c2ncccn2)C3)cn1 [Example 219] reads 6.32

The measured pKi associated with O=C(c1ccccc1-n1nccn1)N1C[C@H]2C[C@@H](Oc3ccc(F)cn3)[C@@H]1C2 [Example 118] reads 5.80

The measured pKi associated with O=C(c1ccccc1-c1ncccn1)N1C[C@H]2C[C@@H](Nc3cnc(Cl)cn3)[C@@H]1C2 [Example 215] reads 6.36

The measured pKi associated with O=C(c1cccc2cc[nH]c12)N1C[C@H]2C[C@@H](Nc3ccc(C(F)(F)F)cn3)[C@@H]1C2 [Example 185] reads 6.84

The measured pKi associated with O=C(c1ccccc1-n1nccn1)N1C[C@H]2C[C@@H](Nc3ccc(Br)cn3)[C@@H]1C2 [Example 166] reads 6.63

The measured pKi associated with O=C(c1c(F)cccc1-c1ncccn1)N1C[C@H]2C[C@@H](Nc3ccc(C(F)(F)F)cn3)[C@@H]1C2 [Example 147] reads 6.72

The measured pKi associated with CCc1cnc(O[C@@H]2C[C@H]3C[C@@H]2N(C(=O)c2nc(C)ccc2-n2nccn2)C3)nc1 [Example 136] reads 5.33
